The reported numbers originate from PubChem BioAssay AID2025.

- Measurement notes: compounds altering RPL19A-GFP fluorescence, TOR branch – cell-based, S. cerevisiae, multiplex flow cytometry, MLPCN, primary screen (AID 2025);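 note: median channel GFP fluorescence of the barcoded RPL19A-GFP strain; ratio of sample median GFP to plate DMSO average so 100% = DMSO; lower means less RPL19A-GFP as with rapamycin TOR inhibition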
- Condition context: S. cerevisiae RPL19A-GFP strain, 3 h, at 10 µM
In all, about 330,000 compounds went through this assay and about 980 (0.3%) were called active.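 Rule for the calls: active = percent response vs DMSO below 50%; inconclusive = fewer than 70 events counted for the yeast strain; inactive = the rest.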 The sample holds actives, similar compounds and a random draw of the others, so the mix is not that of the screen.
The reply should name one outcome from 1 (yes) = active, 0 (no) = inactive

compound=O=C(c1cc(S(=O)(=O)N2CCOCC2)ccc1Cl)N1CCOCC1 assigned_class="0 (no)"
compound=COc1ccc(CSc2nnnn2-c2ccc(C(=O)O)cc2)cc1 assigned_class="0 (no)"

Exam item: Hi team, can someone confirm the assay call for COc1ccc(CCNc2cc(N3CCN(C(=O)c4ccccc4OC)CC3)ccc2[N+](=O)[O-])cc1OC ?
Marked response: 1 (yes)

---

- Measurement notes: compounds altering RPL19A-GFP fluorescence, TOR branch – cell-based, S. cerevisiae, multiplex flow cytometry, MLPCN, primary screen (AID 2025);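 note: median channel GFP fluorescence of the barcoded RPL19A-GFP strain; ratio of sample median GFP to plate DMSO average so 100% = DMSO; lower means less RPL19A-GFP as with rapamycin TOR inhibition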
- Condition context: S. cerevisiae RPL19A-GFP strain, 3 h, at 10 µM
Out of some 330,000 compounds screened, about 980 (0.3%) were called active.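 Rule for the calls: active = percent response vs DMSO below 50%; inconclusive = fewer than 70 events counted for the yeast strain; inactive = the rest.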 This is one part of a sample in which actives are shown more often than they occur.
Pick one: y for active, n for inactive

Exam item: Hello, I am checking results. What call was entered for O=C(NNS(=O)(=O)Cc1ccccc1)c1ccc([N+](=O)[O-])cc1 ?
Marked response: y

Exam item: For this compound, state the assay outcome: O=C1CN(C(=O)COC(=O)c2cnc(Cl)c(Cl)c2)c2ccccc2N1
Marked response: y

Exam item: Test call for this compound, please: CCOc1ccc(C(C(=O)NC2CCCC2)N(C(=O)c2snc(C(N)=O)c2N)C2CCCC2)cc1 (configuration not stated)
Marked response: n

Exam item: I'd appreciate the recorded outcome for O=C(N/N=C/c1ccc(Cl)c(Cl)c1)c1ccc2nc[nH]c2c1 from this test.
Marked response: n

---

- Measurement notes: compounds altering RPL19A-GFP fluorescence, TOR branch – cell-based, S. cerevisiae, multiplex flow cytometry, MLPCN, primary screen (AID 2025);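 note: median channel GFP fluorescence of the barcoded RPL19A-GFP strain; ratio of sample median GFP to plate DMSO average so 100% = DMSO; lower means less RPL19A-GFP as with rapamycin TOR inhibition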
- Condition context: S. cerevisiae RPL19A-GFP strain, 3 h, at 10 µM
Out of some 330,000 compounds screened, about 980 (0.3%) were called active.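 How the source made its calls: active means percent response vs DMSO below 50%; inconclusive means fewer than 70 events counted for the yeast strain; inactive means the rest.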 The sample as a whole holds a higher share of actives than the screen did.
Form entry, call: pick from 1 (active), 0 (inactive)

Past entries and their recorded results:
compound=N#Cc1ccc(C(=O)Nc2nc(-c3cccs3)c(C(=O)C(F)(F)F)s2)cc1 assigned_class=0
compound=O=C(NCc1ccccn1)c1ccc2nc(-c3ccco3)c(-c3ccco3)nc2c1 assigned_class=0
compound=O=C(CN1CCCC1)N1CCN(c2ccccc2)CC1 assigned_class=0
compound=CN(CCCNC(=O)CN1C(=O)CC(C)(C)S(=O)(=O)c2ccccc21)C1CCCCC1 assigned_class=0
compound=CC(=O)Nc1ccc(NC(=O)CC2CCCC2)cc1 assigned_class=1
compound=CCOc1ncccc1C(=O)OCC(=O)NC1CC1 assigned_class=0

// next entry
Exam item: So what was the verdict on Cc1nn(Cc2ccccc2)c(C)c1NS(=O)(=O)c1ccccc1 in this test?
Marked response: 0

---

- Measurement notes: compounds altering RPL19A-GFP fluorescence, TOR branch – cell-based, S. cerevisiae, multiplex flow cytometry, MLPCN, primary screen (AID 2025);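 note: median channel GFP fluorescence of the barcoded RPL19A-GFP strain; ratio of sample median GFP to plate DMSO average so 100% = DMSO; lower means less RPL19A-GFP as with rapamycin TOR inhibition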
- Condition context: S. cerevisiae RPL19A-GFP strain, 3 h, at 10 µM, active compounds read low
About 980 (0.3%) of roughly 330,000 compounds were called active. This excerpt belongs to a sample that is enriched for actives.
Reported property: percent response vs DMSO (%)
State the answer as a number, implicitly in %.

Examples with their reported percent response vs DMSO follow.
compound=Cc1c(C(C)(C)O)[nH]c2ccc(C#N)cc12 reported_property="percent response vs DMSO" unit_abbreviation=% test_result=91.7
compound="COc1ccc(C(=O)NC(Cc2ccc(OC(=O)c3ccc(OC)cc3)cc2)C(=O)O)cc1 (stereo not drawn)" reported_property="percent response vs DMSO" unit_abbreviation=% test_result=96.9
compound=Cc1ccc(OCCCCN2CCCCC2)c(Br)c1 reported_property="percent response vs DMSO" unit_abbreviation=% test_result=96.8

Cc1nc2ccccc2c(=O)n1NC(=O)c1ccccc1 yielded percent response vs DMSO of 100

Reported percent response vs DMSO of CCc1ccccc1S(=O)(=O)Cc1ccc(C(=O)NCCc2ccccc2)o1 : 96.8

Just so you know, measured percent response vs DMSO for O=C(c1ccncc1)c1ccc([N+](=O)[O-])cc1 came out at 98.9

Sample COc1ccccc1NC(=S)N1CCN(c2ccc(F)cc2)CC1 ; percent response vs DMSO observed: 106

For reference, reported percent response vs DMSO for Cc1oc(-c2ccccc2F)nc1CS(=O)CC(=O)NCCN1CCCCC1C (stereo not drawn) stands at 100
